# Test description: Ketose 3-epimerase activity ratio (T70/T50) at reaction temperature of 70° C. to 50° C.
# Format: biochemical
# Stated conditions: crude recombinant enzyme; ratio of activity at 70° C. to activity at 50° C., 10 min reaction

{"columns": ["Molecule", "T70/T50"],
 "data": [
  ["Ketose 3-epimerase mutant 17: amino acid-substituted mutant of SEQ ID NO: 1 (protein, Arthrobacter histidinolovorans) MKIGCHGLVWTGRFDAEGIRYSVQKTKEAGFDLIEFPLMDPFSFDVATAKSALAEHGLTASASLGLSEATDVSSEDPAIVKAGEELLNRALDVLAELGATEFCGVIYSAMKKYMEPATEQGLSNSKAAVGRVVDRAAGLGINVSLEVVNRYETNVLNTGRQALSYLSDVKRPNLGVHLDTYHMNIEESDMFSPVLDTAEVLKYVHIGESHRGYLGTGSVDFDNFFKALGRIGYDGPVVFESFSSAVVAPDLSRMLGIWRNLWADNEELGAHANAFIRDKLTAIKTIELH", 1.89],
  ["Ketose 3-epimerase mutant 36: amino acid-substituted mutant of SEQ ID NO: 1 (protein, Arthrobacter histidinolovorans) MKIGCHGLVWTGRFDAEGIRYSVQKTKEAGFDLIEFPLMDPFSFDVATAKSALAEHGLTASASLGLSEATDVSSEDPAIVKAGEELLNRALDVVAELGATDFCGVIYSAMKKYMEPATEQGLSNSKAAVGRVVDRAAGLGINVSLEVVNRYETNVLNTGRQALSYLSDVKRPNLGVHLDTYHMNIEESDMFSPVLDTAEALKYVHIGESHRGYLGTGSVDFDNFFKALGRIGYDGPVVFESFSSAVVAPDLSRMLGIWRNLWADNEELGAHANAFIRDKLTAIKTIELH", 1.30]
]}
